Measured protein stability index of individual entries
TEST_SUMMARY: protein stability index of a GFP-peptide fusion (yeast GPS) (PSI 1-4); higher = more stable; sorted into four equal gates, so the index is relative within each strain
MEASUREMENT_SETUP: doa10∆
EXPERIMENTAL_READOUT: protein stability index

input_sequence="DNVDFILSNVDLAMANS [RPB3]" observed_result=3.07
input_sequence="FILELEHKTPELISFKE [YIL149C/MLP2]" observed_result=2.86
input_sequence="TDLRLSTNGLGMCQLYF [SNU114]" observed_result=3.48
input_sequence="ASYAKYLIDHIKVEGAV [RPL22A]" observed_result=2.95
input_sequence="KARNGLDYVRTPAAATS [SNF2]" observed_result=2.4
input_sequence="NDWQMLEMLKPCVEDGF [RPB2]" observed_result=2.79
input_sequence="KPMNKGQHKNNTSLNIN [SWP82]" observed_result=2.92
input_sequence="QRVRNMRELGLIQSTEF [YOR098C/NUP1]" observed_result=2.78
input_sequence="RNRGKIHSGVLSSIESD [YMR153W/NUP53]" observed_result=2.93
input_sequence="EEAPAPTPAASAPAPAA [FAS2]" observed_result=2.8
input_sequence="LGYKDTSVIQDLSEKIL [BRR2]" observed_result=2.77
input_sequence="LESDFVTGASQFQRLAP [PRE2]" observed_result=2.88
input_sequence="DLKSKADKLADMANEII [RRP6]" observed_result=3.38
input_sequence="VNYLISNTMYSVRLFSF [YJL039C/NUP192]" observed_result=1.43
input_sequence="LAKILARSIDVEKGVNP [ECM29]" observed_result=1.21
input_sequence="DLKAQFQELDSKKQRNN [RPN9]" observed_result=3.21
input_sequence="GGRMFAPTKTWRKWNVK [RPL4A]" observed_result=2.87
input_sequence="KLWFQLSESLTKFFDDA [RPN9]" observed_result=3.02
input_sequence="YVAPTKKEYIELDILNK [SRB4]" observed_result=2.76
input_sequence="IVAALPISEKGLTLSTT [RPP1]" observed_result=2.11
input_sequence="QNNLPPNFFLTLISENW [BRR2]" observed_result=2.94
input_sequence="NATVVDSFKYEPLAPGN [YLR335W/NUP2]" observed_result=2.95
input_sequence="YLDADVAKLANWFLEVY [YML031W/NDC1]" observed_result=2.45
input_sequence="PSVNDFVIGVIIGTFSD [RRP40]" observed_result=1.64
input_sequence="IYAKQQEQLKQMDQQLQ [ARP7]" observed_result=1.76
input_sequence="TAELIKELKEKEAAESP [PUP2]" observed_result=2.79
input_sequence="PLVAHLGLYVGVDDQIL [YJL039C/NUP192]" observed_result=2.42
input_sequence="VVYHPSNNELVRTNTLT [RPS8A]" observed_result=2.65
input_sequence="LYQSLTPQQLQMIQQRH [SNF5]" observed_result=1.77
input_sequence="KKLPRKTHRGLRKVACI [RPL3]" observed_result=1.61
input_sequence="KIKFDESSKLMTVTKVS [BRR2]" observed_result=1.75
input_sequence="SGQTPVQSKARYTVRTF [RPL11A]" observed_result=2.29
input_sequence="KVVKAIRIYFTEKDDNK [NUT1]" observed_result=2.31
input_sequence="NLPPHYALFLKALRRKI [SSN2]" observed_result=2.15
input_sequence="AGYTDNVIRVWQVMTAN [ASC1]" observed_result=1.56
input_sequence="PSLKAHFTEIKLNKVDK [SIR3]" observed_result=2.31
input_sequence="LSTRAGGLGLNLQTADT [SNF2]" observed_result=2.75
input_sequence="MSSVQSKILSQAPSELE [RPS7B]" observed_result=2.58
input_sequence="VSAAEDESLIRELYKYV [PRP28]" observed_result=3.27
input_sequence="ESLKKSPIFEVLSDDAK [ARP9]" observed_result=3.01
input_sequence="LSKVFSDVLFEFTKINT [YJL039C/NUP192]" observed_result=2.87
input_sequence="NTVPQVTNFNSTNEDQN [SRB5]" observed_result=2.83
input_sequence="KTDPAGYYVGYKATATG [SCL1]" observed_result=2.98
input_sequence="RIFKITEKLSPLASEES [YGL100W/SEH1]" observed_result=2.82
input_sequence="ATTQDQVASIIESFVEL [NUT2]" observed_result=2.11
input_sequence="SQVVWIRRLRVLRRLLA [RPL19A]" observed_result=1.22
input_sequence="EGLCIVAGSKCWAVRAD [RRP45]" observed_result=2.38
input_sequence="QVILPMSPNHGTFGGDG [FAS2]" observed_result=3.12
input_sequence="NVTSSGDHNKLRSTIAN [YML103C/NUP188]" observed_result=2.43
input_sequence="MIATNVAARGLDIPNVS [PRP28]" observed_result=2.58
input_sequence="YTYHSTNKDNKAELIKP [ARP9]" observed_result=2.74
input_sequence="QGNYPTTSYIKEQENIT [DPB4]" observed_result=3
input_sequence="KLVEIIWNDVVYGEGTS [YJL039C/NUP192]" observed_result=3.46
